- Tested on: IGROV-1
- Assay explanation: NCI tumour cell line growth inhibition, 48 h
Activity calls are given as the source filed them. Cut-off read from the data, not from the text of the source: active = GI50 up to about 1.1 µM and inactive = higher.
# valid calls are label 1 = active, label 0 = inactive; nothing else

Compound	Label class
NC(=O)c1c([N+](=O)[O-])cc(C(F)(F)F)cc1[N+](=O)[O-]	label 0
NC(=S)N/N=C1\C(=O)Nc2c(Cl)cc(Cl)cc21	label 0
CC1C[C@]2(C)C(=O)Nc3ccccc3[C@@H]2Nc2ccccc21 (stereo partly specified)	label 0
CC#CC(O)(C(=O)OC1CC2CCC(C1)N2C)C1CCCC1 (stereo unspecified)	label 0
Cc1ccc(C)c(NC(=O)C(=O)Nn2c(S)nc3ccccc3c2=O)c1	label 0

Exercise: Write down the call the test reported for this compound. Item: Cc1cc(=O)oc2cc(OC(=O)N(C)C)c(Cl)cc12
Key: label 0

Exercise: Write down the call the test reported for this compound. Item: C1#Cc2ccccc2OCCOc2ccccc2C#Cc2ccccc2OCCOc2ccccc21
Key: label 0

Exercise: Write down the call the test reported for this compound. Item: O=C1CSc2sc(=S)sc2S1
Key: label 0

Exercise: Write down the call the test reported for this compound. Item: Cc1ccc(-c2n[nH]c(=O)n2N2C(=O)C=CC2=O)cc1
Key: label 0

Exercise: Write down the call the test reported for this compound. Item: COC(COC(N)=O)C1=C(N2CC2)C(=O)C(C)=C(N2CC2)C1=O (stereo unspecified)
Key: label 1

Exercise: Write down the call the test reported for this compound. Item: Cc1cc(C)nc(NS(=O)(=O)c2ccc(Nc3c4ccccc4nc4c(C(=O)Nc5ccc(S(N)(=O)=O)cc5)cccc34)cc2)n1
Key: label 0

Exercise: Write down the call the test reported for this compound. Item: Cc1ccccc1Nc1cn(COCc2ccccc2)c(=O)[nH]c1=O
Key: label 0

Exercise: Write down the call the test reported for this compound. Item: CC(C)(C)c1ccc(OCCOCCOc2ccc(C(C)(C)C)cc2S(=O)(=O)Nc2ccc([N+](=O)[O-])cc2)c(S(=O)(=O)Nc2ccc([N+](=O)[O-])cc2)c1
Key: label 0

====

- Test system: DU-145
- Assay explanation: NCI tumour cell line growth inhibition, 48 h
The source made the active and inactive calls. No stated cut-off is given here; in the data, active = GI50 up to about 1.1 µM and inactive = higher.
# valid calls are TRUE (active), FALSE (inactive); nothing else

Take a look at these entries with their results.
Molecule	Label class
Cc1c(N2C(=O)CS(=O)(=O)C2c2cccc(Oc3ccccc3)c2)c(=O)n(-c2ccccc2)n1C (centres undefined)	FALSE
Cc1ccc(S(=O)(=O)Oc2nc3ccccc3nc2N(S(=O)(=O)c2ccc(C)cc2)S(=O)(=O)c2ccc(C)cc2)cc1	FALSE
O=C(CC(C(=O)c1cccs1)c1ccsc1)c1ccco1 (centres undefined)	FALSE

Exercise: Write down the call the test reported for this molecule. Item: O=C1CC(O)c2c(Cl)sc(Cl)c21 (centres undefined)
Key: FALSE

Exercise: Write down the call the test reported for this molecule. Item: COC(COC(N)=O)C1=C(N2CC2)C(=O)C(C)=C(N2CC2)C1=O (centres undefined) [CARBOQUONE]
Key: TRUE

Exercise: Write down the call the test reported for this molecule. Item: COc1ccc([C@H]2C=C(c3cc(F)c(Cl)cc3Cl)N=c3s/c(=C\c4ccc(-c5ccc(Cl)cc5Cl)o4)c(=O)n32)cc1
Key: FALSE

Exercise: Write down the call the test reported for this molecule. Item: COc1cc2c3cc1Oc1c(OC)c(OC)cc4c1C(=NCC4)Cc1ccc(cc1)Oc1cc(ccc1O)C[C@H]3N(C)CC2
Key: FALSE

Exercise: Write down the call the test reported for this molecule. Item: CCOC(=O)C1=CN2C(=N[C@H]3CCCC[C@@H]32)NC1=O
Key: FALSE

Exercise: Write down the call the test reported for this molecule. Item: C/C(=N\O)c1ccc2ccc3ccccc3c2c1
Key: FALSE

Exercise: Write down the call the test reported for this molecule. Item: CC1(C)CC2=NOS3=C2C(=NO3)C1c1ccccn1 (centres undefined)
Key: FALSE

Exercise: Write down the call the test reported for this molecule. Item: COc1c(O)c(O)c2c(c1O)C(=O)c1cc(C)cc(O)c1C2=O
Key: FALSE
